All figures here come from patent US12486253B2.

molecular target: BRAF V600E (Homo sapiens, UniProt P15056, V600E); assay: HiBiT cellular BRAF^V600E degradation assay; format: cell-based; details: A375.10 cells, 24 h; residual protein remaining in the cell; read-out: HiBit 24 h Emax
Sequence (P15056 whole entry V600E): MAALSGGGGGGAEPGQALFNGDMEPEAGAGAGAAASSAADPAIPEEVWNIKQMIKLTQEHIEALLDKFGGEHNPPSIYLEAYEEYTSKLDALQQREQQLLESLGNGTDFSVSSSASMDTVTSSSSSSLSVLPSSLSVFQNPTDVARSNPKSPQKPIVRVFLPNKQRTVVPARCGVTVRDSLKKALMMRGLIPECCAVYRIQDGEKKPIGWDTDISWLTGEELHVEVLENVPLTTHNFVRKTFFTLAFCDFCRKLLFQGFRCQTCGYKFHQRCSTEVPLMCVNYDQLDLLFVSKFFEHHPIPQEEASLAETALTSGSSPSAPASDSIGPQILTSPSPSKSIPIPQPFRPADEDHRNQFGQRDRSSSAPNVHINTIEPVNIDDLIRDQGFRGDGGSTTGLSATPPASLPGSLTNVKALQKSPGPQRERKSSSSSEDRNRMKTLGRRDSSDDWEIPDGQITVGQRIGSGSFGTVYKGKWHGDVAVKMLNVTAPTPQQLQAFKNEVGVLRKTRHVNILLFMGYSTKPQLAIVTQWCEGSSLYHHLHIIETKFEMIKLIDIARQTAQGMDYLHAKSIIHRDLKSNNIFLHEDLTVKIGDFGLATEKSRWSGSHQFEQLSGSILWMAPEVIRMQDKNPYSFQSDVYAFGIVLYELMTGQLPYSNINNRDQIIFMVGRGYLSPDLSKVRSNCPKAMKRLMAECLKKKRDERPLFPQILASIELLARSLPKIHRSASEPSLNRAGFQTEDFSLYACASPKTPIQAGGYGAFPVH
Would you mind telling me the reported Emax of each entry?
Answers are plain numbers, in %.

INSERT INTO measurements (molecule, assay_system, property_label, unit_label, recorded_number) VALUES
  ('CCN(C)S(=O)(=O)Nc1ccc(F)c(Oc2ccc3ncn([C@H]4COC5(CCN(C(=O)CC6CCN(c7ccc8c(C9CCC(=O)NC9=O)nn(C)c8c7)CC6)CC5)C4)c(=O)c3c2)c1C#N (stereo partly shown)', 'BRAF V600E (Homo sapiens, UniProt P15056, V600E)', 'Emax', '%', 24.6),
  ('CCN(C)S(=O)(=O)Nc1ccc(F)c(Oc2ccc3ncn(CCCC4CCN(C(=O)CN5CCC(c6ccc(C7CCC(=O)NC7=O)cc6F)CC5)CC4)c(=O)c3c2)c1C#N (stereo not shown)', 'BRAF V600E (Homo sapiens, UniProt P15056, V600E)', 'Emax', '%', 13.1),
  ('CCN(C)S(=O)(=O)Nc1ccc(F)c(Oc2ccc3ncn(C4CC5(CCN(C(=O)CN6CCC(c7ccc(NC8CCC(=O)NC8=O)cc7F)CC6)CC5)C4)c(=O)c3c2)c1C#N (stereo not shown)', 'BRAF V600E (Homo sapiens, UniProt P15056, V600E)', 'Emax', '%', 11.5),
  ('CC(C)S(=O)(=O)Nc1ccc(F)c(Oc2ccc3ncn([C@H]4COC5(CCN(C(=O)CC6(O)CCN(c7cc8c(cc7F)c(N7CCC(=O)NC7=O)nn8C)CC6)CC5)C4)c(=O)c3c2)c1C#N', 'BRAF V600E (Homo sapiens, UniProt P15056, V600E)', 'Emax', '%', 24.5),
  ('CC(C)S(=O)(=O)Nc1ccc(F)c(Oc2ccc3ncn(-c4cnc(N5CCN(C(=O)CN6CCC(c7ccc(N[C@H]8CCC(=O)NC8=O)cc7F)CC6)CC5)nc4)c(=O)c3c2)c1C#N', 'BRAF V600E (Homo sapiens, UniProt P15056, V600E)', 'Emax', '%', 8.79),
  ('CCN(C)S(=O)(=O)Nc1ccc(F)c(Oc2ccc3ncn(CC4COC5(CCN(C(=O)CN6CCC(c7ccc(NC8CCC(=O)NC8=O)cc7F)CC6)CC5)C4)c(=O)c3c2)c1C#N (stereo not shown)', 'BRAF V600E (Homo sapiens, UniProt P15056, V600E)', 'Emax', '%', 10.3),
  ('CCN(C)S(=O)(=O)Nc1ccc(F)c(Oc2ccc3ncn([C@H]4CCC5(CCN(C(=O)CN6CCC(c7ccc8c(C9CCC(=O)NC9=O)nn(C)c8c7)C(F)(F)C6)CC5)C4)c(=O)c3c2)c1C#N (stereo partly shown)', 'BRAF V600E (Homo sapiens, UniProt P15056, V600E)', 'Emax', '%', 23.9),
  ('CCN(C)S(=O)(=O)Nc1ccc(F)c(Oc2ccc3ncn([C@H]4COC5(CCN(C(=O)CN6CC[C@@H](c7cc8c(cc7F)c(N7CCC(=O)NC7=O)nn8C)C(F)(F)C6)CC5)C4)c(=O)c3c2)c1C#N (single isomer, unassigned)', 'BRAF V600E (Homo sapiens, UniProt P15056, V600E)', 'Emax', '%', 10.9),
  ('CCN(C)S(=O)(=O)Nc1ccc(F)c(Oc2ccc3ncn(C4COC5(CCN(C(=O)CN6CCC(c7ccc8c(C9CCC(=O)NC9=O)nn(C)c8c7)CC6)CC5)C4)c(=O)c3c2)c1C#N (single isomer, unassigned)', 'BRAF V600E (Homo sapiens, UniProt P15056, V600E)', 'Emax', '%', 11.5);

Note: attention shifts to another entry.
IN: Looking for the measured Emax of CCN(C)S(=O)(=O)Nc1ccc(F)c(Oc2ccc3ncn(CCC4CCN(CC(=O)N5CCC(c6ccc(NC7CCC(=O)NC7=O)cc6)CC5)CC4)c(=O)c3c2)c1C#N (stereo not shown) , can you help?
OUT: 26
